Conditions: Liquid; Ebulliometric method (Recirculating still)
Assignment: determine reported Normal boiling temperature for the given compounds.
Only the number, expressed in °C, is required.

Could you tell me which Normal boiling temperature is on file for CCOC(=O)CC [ethyl propanoate] ?
99.10

Can you share its Normal boiling temperature? I mean this compound: CCC(=O)O
141.20

May I ask what Normal boiling temperature has been recorded for CCO ?
78.40

Item under review: O . Reported Normal boiling temperature?
100.00

----------
Assay: refractive index (Na D-line) (dimensionless)
Conditions: 293.15 K; 101.33 kPa; Liquid; Standard Abbe refractometry
Kindly supply the reported refractive index values for the records listed here.
Number only, please.

GET /values?readout=refractive index&item= CCOC(=O)CC [ethyl propanoate]
1.3839

Recorded refractive index of O [water] , please.
1.333

Need refractive index, item CCO [ethanol]
1.3608

Need refractive index, item CCC(=O)O [propanoic acid]
1.3872
